Entries and their measured Trimeric HA Binding RLU follow.
TESTED ON: recombinant homotrimeric HA, A/Indonesia/5/05 H5N1 (Influenza A virus A/Indonesia/5/05 (H5N1))
TEST DESCRIPTION: trimeric HA microarray, transfection set 2
CONDITION: remark: other sources report otherwise
READOUT KIND: Trimeric HA Binding RLU (RLU)

# BINDER, READOUT KIND, OBSERVED VALUE
data = [
    ("TCN-528 (5087_P17) (antibody, V domains shown) VH: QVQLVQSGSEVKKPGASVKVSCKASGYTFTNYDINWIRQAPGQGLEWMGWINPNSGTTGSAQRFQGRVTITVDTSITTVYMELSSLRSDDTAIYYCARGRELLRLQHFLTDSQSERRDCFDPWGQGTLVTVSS VL: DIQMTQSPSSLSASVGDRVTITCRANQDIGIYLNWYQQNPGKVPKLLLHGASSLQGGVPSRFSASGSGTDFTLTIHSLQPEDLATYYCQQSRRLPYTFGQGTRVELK", "Trimeric HA Binding RLU", 39700),
    ("TCN-563 (5237_B21) (antibody, V domains shown) VH: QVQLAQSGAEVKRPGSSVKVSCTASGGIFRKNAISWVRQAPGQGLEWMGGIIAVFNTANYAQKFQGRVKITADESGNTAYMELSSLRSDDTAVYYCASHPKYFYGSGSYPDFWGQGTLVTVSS VL: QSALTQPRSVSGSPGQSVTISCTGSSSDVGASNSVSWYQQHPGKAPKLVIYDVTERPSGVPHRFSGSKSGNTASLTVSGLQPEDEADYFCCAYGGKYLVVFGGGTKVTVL", "Trimeric HA Binding RLU", 47300),
]
